CONDITION SUMMARY: in acetonitrile, 313.15 K
REPORTED METRIC: solubility (mole fraction)
Form rule: numeric answer, no unit written next to it.

// query solubility (mole fraction) value for entry `Nc1cccc(S(=O)(=O)c2cccc(N)c2)c1`
0.0182

* * *

CONDITION SUMMARY: in isobutanol, 323.15 K
REPORTED METRIC: solubility (mole fraction)
Form rule: numeric answer, no unit written next to it.

// query solubility (mole fraction) value for entry `Nc1cccc(S(=O)(=O)c2cccc(N)c2)c1`
0.00234

* * *

CONDITION SUMMARY: in isobutanol, 313.15 K
REPORTED METRIC: solubility (mole fraction)
Form rule: numeric answer, no unit written next to it.

// query solubility (mole fraction) value for entry `Nc1cccc(S(=O)(=O)c2cccc(N)c2)c1`
0.00166

Reference for the values: BigSolDB 2.1
